assay: Apparent permeability from basolateral to apical side in human Caco2 cells at 2.5 mg/ml after 2 hrs by reversed-phase HPLC method; format: ADME, cell-based; conditions: Caco-2
Each entry below carries its recorded Papp B→A at 2 h, 2.5 mg/ml.
Give a bare numeral; the unit ×10⁻⁶ cm/s is implied.

Before answering, review these 3 worked examples.
O=C(Nc1n[nH]c2ccc(Cc3cc(F)cc(F)c3)cc12)c1ccc(CN2CCCCC2)cc1NC1CCOCC1
1.9
CN1CCN(c2ccc(C(=O)Nc3n[nH]c4ccc(Cc5cc(F)cc(F)c5)cc34)c(N[C@H]3CC[C@H](O)CC3)c2)CC1
5.1
CN1CCN(c2ccc(C(=O)Nc3n[nH]c4ccc(Cc5cc(F)cc(F)c5)cc34)c(NC3CCOCC3)c2)CC1
3

Indicate its recorded Papp B→A at 2 h, 2.5 mg/ml; the compound in question is CN(C)CCN(C)C(=O)c1ccc(C(=O)Nc2n[nH]c3ccc(Cc4cc(F)cc(F)c4)cc23)c(NC2CCOCC2)c1
19.8

Indicate its recorded Papp B→A at 2 h, 2.5 mg/ml; the compound in question is CN1CCN(c2ccc(C(=O)Nc3n[nH]c4ccc(Cc5cc(F)cc(F)c5)cc34)c(NCCF)c2)CC1
1.5

Indicate its recorded Papp B→A at 2 h, 2.5 mg/ml; the compound in question is O=C(Nc1n[nH]c2ccc(Cc3cc(F)cc(F)c3)cc12)c1ccc(N2CCNCC2)cc1NC1CCOCC1
4.5

Indicate its recorded Papp B→A at 2 h, 2.5 mg/ml; the compound in question is CN1CCC(Oc2ccc(C(=O)Nc3n[nH]c4ccc(Cc5cc(F)cc(F)c5)cc34)c(NC3CCOCC3)c2)CC1
2

* * *

test: Tmax in Harlan nu/nu mouse at 10 mg/kg, po administered as single dose by LC-MS/MS analysis; format: ADME, organism-based; conditions: in vivo
Each entry below carries its recorded Tmax.
Give a bare numeral; the unit h is implied.

CN1CCN(c2ccc(C(=O)Nc3n[nH]c4ccc(Cc5cc(F)cc(F)c5)cc34)c(NC3CCOCC3)c2)CC1 [ENTRECTINIB]
2.5
O=C(Nc1n[nH]c2ccc(Cc3cc(F)cc(F)c3)cc12)c1ccc(N2CCNCC2)cc1NC1CCOCC1
6
CN1CCC(Oc2ccc(C(=O)Nc3n[nH]c4ccc(Cc5cc(F)cc(F)c5)cc34)c(NC3CCOCC3)c2)CC1
6
O=C(Nc1n[nH]c2ccc(Cc3cc(F)cc(F)c3)cc12)c1ccc(CN2CCCCC2)cc1NC1CCOCC1
0.83
CN1CCN(c2ccc(C(=O)Nc3n[nH]c4ccc(Cc5cc(F)cc(F)c5)cc34)c(NCCF)c2)CC1
4.33

Indicate its recorded Tmax; the compound in question is CN1CCN(c2ccc(C(=O)Nc3n[nH]c4ccc(Cc5cc(F)cc(F)c5)cc34)c(N[C@H]3CC[C@H](O)CC3)c2)CC1
1

* * *

test: Drug uptake in Harlan nu/nu mouse brain at 240 mg/kg, po administered per day for 2 weeks measured 6 hrs post last dose by LC-MS/MS analysis; assay type: ADME, organism-based; details: read-out: Drug uptake
measurement.type: concentration at 6 h
The reply should read as a number followed by its unit.

Indicate its recorded concentration at 6 h; the molecule in question is CN1CCN(c2ccc(C(=O)Nc3n[nH]c4ccc(Cc5cc(F)cc(F)c5)cc34)c(NC3CCOCC3)c2)CC1
1940 nM
